Attribution: patent US20110165161A1

TARGET_OR_TEST_SYSTEM: T1, human EpCAM (epithelial cell adhesion/activating molecule) (human, UniProt P16422 24-314)
T1 sequence: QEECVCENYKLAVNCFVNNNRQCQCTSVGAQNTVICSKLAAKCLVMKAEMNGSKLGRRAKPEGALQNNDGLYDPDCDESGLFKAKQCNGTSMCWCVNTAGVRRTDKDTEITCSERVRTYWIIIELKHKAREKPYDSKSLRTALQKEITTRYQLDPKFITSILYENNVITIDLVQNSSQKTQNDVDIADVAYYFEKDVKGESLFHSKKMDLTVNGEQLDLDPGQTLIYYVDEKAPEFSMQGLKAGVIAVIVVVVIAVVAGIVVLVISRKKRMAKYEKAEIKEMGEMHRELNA
TEST_DETAILS: cell-based or functional assay
MEASURE_NAME: % Annexin V/PI-positive cells, NCI-N87, 1.0 µg/ml mAb (%)
Give bare numbers, in %.

**Query** Input murine monoclonal antibody 4D2 (antibody, mouse IgG1, V domains shown, Mouse IgG1, kappa, from hybridoma; also called m338-4D2.20) VH: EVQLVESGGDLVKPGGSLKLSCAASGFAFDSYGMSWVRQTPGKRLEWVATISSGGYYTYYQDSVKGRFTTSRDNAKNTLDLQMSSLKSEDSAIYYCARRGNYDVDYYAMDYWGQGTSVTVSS VL: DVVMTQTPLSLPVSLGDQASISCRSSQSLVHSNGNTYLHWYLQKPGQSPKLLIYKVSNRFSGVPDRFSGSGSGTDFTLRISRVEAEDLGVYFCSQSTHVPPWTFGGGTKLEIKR , output reported % Annexin V/PI-positive cells, NCI-N87, 1.0 µg/ml mAb.
**Result** 49
